Where do these numbers come from? They come from patent US20190062438A1.

Biological target: T1, soluble Homo sapiens CD131 comprising a C-terminal 6xHis tag (human, UniProt P32927 17-438)
T1 construct: truncated after Ser438, C-terminal 6xHis; also called shCD131; shβc
T1 sequence: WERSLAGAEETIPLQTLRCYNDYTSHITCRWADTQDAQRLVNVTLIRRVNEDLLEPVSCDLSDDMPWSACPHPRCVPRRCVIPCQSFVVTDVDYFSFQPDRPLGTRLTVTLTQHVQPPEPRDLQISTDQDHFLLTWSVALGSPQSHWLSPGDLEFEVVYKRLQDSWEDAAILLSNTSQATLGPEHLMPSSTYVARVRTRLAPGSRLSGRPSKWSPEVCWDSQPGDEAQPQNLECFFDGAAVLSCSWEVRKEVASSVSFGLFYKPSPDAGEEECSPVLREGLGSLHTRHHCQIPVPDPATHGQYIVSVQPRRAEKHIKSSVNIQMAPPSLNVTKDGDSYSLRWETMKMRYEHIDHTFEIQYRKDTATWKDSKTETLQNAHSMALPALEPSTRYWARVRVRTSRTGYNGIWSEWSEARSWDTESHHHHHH
Assay: SPR, Fab over captured shCD131
Below, each entry is listed alongside its reported Kd.
endpointName: Kd (pM)

9A2-VR24.29 Fab (Fab, V domains shown, recombinant Fab; also called recombinant Fab fragment of 9A2-VR24.29) VH: EVQLLESGGGLVQPGGSLRLSCAASGFTFPWYRVHWVRQAPGKGLEWVSSIRSSGGFPYYNYKVKGRFTISRDNSKNTLYLQMNSLRAEDTAVYYCARFYDSFFDIWGQGTMVTVSS VL: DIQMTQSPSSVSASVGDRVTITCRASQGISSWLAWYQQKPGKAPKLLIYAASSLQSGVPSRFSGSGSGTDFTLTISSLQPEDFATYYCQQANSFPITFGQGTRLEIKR ... 100
9A2-VR24.91 Fab (Fab, V domains shown, recombinant Fab) VH: EVQLLESGGGLVQPGGSLRLSCAASGFTFPWYRVHWVRQAPGKGLEWVSSIHTHRQVTYYADSVKGRFTISRDNSKNTLYLQMNSLRAEDTAVYYCARFYDSFFDIWGQGTMVTVSS VL: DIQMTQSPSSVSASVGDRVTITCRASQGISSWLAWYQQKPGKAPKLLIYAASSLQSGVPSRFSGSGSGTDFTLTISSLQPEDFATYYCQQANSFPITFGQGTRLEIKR ... 161
9A2-VR39.110 Fab (Fab, V domains shown, recombinant Fab) VH: EVQLLESGGGLVQPGGSLRLSCAASGFTFVWYHHIWVRQAPGKGLEWVSSINGRGRVTYYADSVKGRFTISRDNSKNTLYLQMNSLRAEDTAVYYCARFYDSFFDIWGQGTMVTVSS VL: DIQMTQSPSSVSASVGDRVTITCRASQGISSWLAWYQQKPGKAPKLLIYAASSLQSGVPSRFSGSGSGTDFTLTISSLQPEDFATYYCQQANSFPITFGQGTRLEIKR ... 110
